Cited source: patent US20030068675

Target: T1, ZFP SBS#1409 (synthetic)
T1 chain: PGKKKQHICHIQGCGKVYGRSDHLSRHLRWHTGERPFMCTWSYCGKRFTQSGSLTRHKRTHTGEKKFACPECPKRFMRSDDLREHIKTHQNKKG
Test: EMSA
Settings: tags: MBP fusion
readout name: Kd
Please don't drop the unit; write it after the number.

For the binder CCGGCAGGG (dsDNA) DNA 1: CCGGCAGGG DNA 2: CCCTGCCGG , what Kd is on record?
0.153 nM
